# Tested on: GSTO1 (Homo sapiens, UniProt P78417)
# Sequence (P78417 1-241): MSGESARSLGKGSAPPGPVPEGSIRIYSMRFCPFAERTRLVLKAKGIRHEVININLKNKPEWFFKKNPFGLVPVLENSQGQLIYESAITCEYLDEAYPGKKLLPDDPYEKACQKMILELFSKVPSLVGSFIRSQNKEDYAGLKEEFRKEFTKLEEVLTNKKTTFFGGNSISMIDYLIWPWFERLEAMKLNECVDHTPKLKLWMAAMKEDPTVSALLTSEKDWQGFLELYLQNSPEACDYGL
# Assay text: In-gel fluorescence competitive CMFDA binding assay, recombinant GSTO1
# Assay context: inhibition of CMFDA binding
Measurement name: GSTO binding assay (% Inhibition at 10 µM) Recombinant (%)

Answered cases to consult:
Compound | Result unit | Experimental value
O=C(CCl)NC(=O)c1cccc2ccccc12 | % | 0.3
CC(C)C(C#N)N1CCN(C(=O)CCl)CC1 (stereo not drawn) | % | 52.5
Cc1sc2ncn(NC(=O)CCl)c(=O)c2c1C | % | 50.5
CC(NC(=O)CCl)c1cc2ccccc2o1 (stereo not drawn) | % | 46.7
Cc1cc(C(C)(C)C)cc(C)c1NC(=O)CCl | % | 17.7
CN(C1CCCCC1)S(=O)(=O)c1ccc(NC(=O)CCl)cc1 | % | 70.3
O=C(CCl)N1CCN(Cc2ccccc2F)CC1 | % | 65.1
CN(C)S(=O)(=O)c1ccc2c(c1)CCCN2C(=O)CCl | % | 69.7

(A) O=C(CCl)NCCC12CC3CC(CC(C3)C1)C2
(B) O=C(CCl)Nc1nc(-c2cccc([N+](=O)[O-])c2)cs1
QUERY: Between A and B , whose measured GSTO binding assay (% Inhibition at 10 µM) Recombinant reads higher? Output the label that corresponds to your choice.
RESULT: B

* * *

# Tested on: GSTO1 (Homo sapiens)
# Sequence (P78417 1-241): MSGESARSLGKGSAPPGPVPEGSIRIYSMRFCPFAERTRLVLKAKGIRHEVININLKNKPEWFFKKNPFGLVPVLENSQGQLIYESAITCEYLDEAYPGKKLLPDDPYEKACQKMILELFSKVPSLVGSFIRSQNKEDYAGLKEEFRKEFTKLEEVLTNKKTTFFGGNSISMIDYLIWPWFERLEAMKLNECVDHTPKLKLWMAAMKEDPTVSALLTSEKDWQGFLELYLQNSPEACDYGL
# Assay text: GSTO1 substrate assay (reduction of 4-NPG)
# Assay context: 10 µM
Measurement name: GSTO substrate assay % Inhibition at 10 µM (%)

Smiles text | Experimental value
O=C(CCl)NCc1cc([N+](=O)[O-])ccc1O | 93.2
CN(CCCNC(=O)CCl)c1ccccc1 | 83.1
CCOc1ccc(OCCNC(=O)CCl)cc1 | 62.6
C=CCOc1ccccc1CN(C(=O)CCl)c1ccc2c(c1)OCCO2 | 70.2
O=C(CCl)Nc1nc2cc3c(cc2s1)OCCO3 | 85.1
O=C(CCl)N1CCN(Cc2cccc3ccccc23)CC1 | 83.7
COc1ccc(N2CCN(C(=O)CCl)CC2)cc1 | 78.6
O=C(CCl)Nc1ccnn1Cc1cccc(Cl)c1 | 79.7
CCN(CC)c1ccc(S(=O)(=O)N2CCOCC2)cc1NC(=O)CCl | 84.2
COc1cc2c(cc1OC)CN(C(=O)CCl)CC2 | 69.5
